experiment: Cytotoxicity test, MTT colorimetric method, 293T; assay type: cell-based; settings: human, 293T cells (human renal epithelial cells); 293T cells, MTT, 72 hours; read-out: Cytotoxicity IC50 293T
endpointLabel: IC50 at 72 h (nM)

1. CN(Cc1cnc2nc(N)nc(N)c2n1)c1ccc(C(=O)N[C@@H](CCC(=O)O)C(=O)O)cc1 [Methotrexate, reference compound] | 10

* * *

In this section we review reported IC50 at 72 h values for a set of molecules.
experiment: Cytotoxicity test, MTT colorimetric method, L02; type: cell-based; settings: human
*1 amine or outer side, *2 acyl side, *3 side chain or, on linkers, in order; H or OH if unused. Where a SMILES comes first, the peptide text is derived from it. [ ]: non-standard residue; d: D form. The star is where a group is joined. DAMPA = CN(Cc1cnc2nc(N)nc(N)c2n1)c1ccc(C(=O)*)cc1; Orn(N5-OH,N5-Ac) = CC(=O)N(O)CCC[C@H](N)C(=O)O; d(γGlu) = O=C(O)[C@@H](CCC(=O)[*:2])N[*:1]; Ethylenediamine = C(CN[*:2])N[*:1]
endpointLabel: IC50 at 72 h (µM)

1) CC(=O)N(O)CCC[C@H](NC(=O)[C@H](CCCN(O)C(C)=O)NC(=O)[C@@H](N)CCCN(O)C(C)=O)C(=O)NCCNC(=O)[C@H](CCCCN)NC(=O)CC[C@@H](NC(=O)c1ccc(N(C)Cc2cnc3nc(N)nc(N)c3n2)cc1)C(=O)O [3-4h] | 34.5
2) CC(=O)N(O)CCC[C@H](NC(=O)[C@H](CCCN(O)C(C)=O)NC(=O)[C@@H](N)CCCN(O)C(C)=O)C(=O)N[C@@H](CO)C(=O)NCCNC(=O)CC[C@@H](NC(=O)c1ccc(N(C)Cc2cnc3nc(N)nc(N)c3n2)cc1)C(=O)O [3-4f] (H-[Orn(N5-OH,N5-Ac)][Orn(N5-OH,N5-Ac)][Orn(N5-OH,N5-Ac)]S-{Ethylenediamine-d(γGlu)-DAMPA}) | 14.7
3) CC(=O)N(O)CCC[C@H](NC(=O)[C@H](CCCN(O)C(C)=O)NC(=O)[C@@H](N)CCCN(O)C(C)=O)C(=O)NCCOCCOCCNC(=O)CC[C@@H](NC(=O)c1ccc(N(C)Cc2cnc3nc(N)nc(N)c3n2)cc1)C(=O)O [3-4c] | 5.46
4) CC(=O)N(O)CCC[C@H](NC(=O)[C@H](CCCN(O)C(C)=O)NC(=O)[C@@H](N)CCCN(O)C(C)=O)C(=O)NCCNC(=O)[C@H](CO)NC(=O)[C@H](CO)NC(=O)CC[C@@H](NC(=O)c1ccc(N(C)Cc2cnc3nc(N)nc(N)c3n2)cc1)C(=O)O [3-4g] | 27
5) CC(=O)N(O)CCC[C@H](NC(=O)[C@H](CCCN(O)C(C)=O)NC(=O)[C@@H](N)CCCN(O)C(C)=O)C(=O)NCCCCCNC(=O)CC[C@@H](NC(=O)c1ccc(N(C)Cc2cnc3nc(N)nc(N)c3n2)cc1)C(=O)O [3-4b] | 34.6

The reported numbers originate from patent US12622974B2.
